ASSAY_NOTES: in vitro
STUDY_CONDITIONS: rat, gh3-tre-luc cells, AC50 (uM) modified / 1000
Where a name gives a salt, the structure may show the parent alone.
REPORTED_ENDPOINT: CC50 at 24 h

Worked set:
O=C(O[C@@H]1C[C@@H]2C[C@H]3C[C@H](C1)N2CC3=O)c1c[nH]c2ccccc12 [Dolasetron mesylate] ... 37.3 µM
C=C(C)C(=O)OCCOC(=O)CC(C)=O [2-[Methacryloyloxy]ethyl acetoacetate] ... > 90 µM
Cc1cc(C2(c3cc(C)c(O)cc3C)OS(=O)(=O)c3ccccc32)c(C)cc1O ... 56.6 µM
O=C1Cc2ccccc2N1c1c(Cl)cccc1Cl ... > 90 µM
CNCCc1ccccn1 [Betahistine mesylate] ... > 20 µM

Prompt line: Which CC50 at 24 h reading was recorded for the compound N[C@H](C(=O)O)c1ccc(O)cc1 ?
Response line: > 50 µM

Prompt line: Which CC50 at 24 h reading was recorded for the compound Cc1nnc(NS(=O)(=O)c2ccc(N)cc2)s1 ?
Response line: > 50 µM

Prompt line: Which CC50 at 24 h reading was recorded for the compound CCN[C@@H](C)Cc1ccccc1 [(S)-(+)-N-Ethylamphetamine hydrochloride] ?
Response line: > 100 µM

Prompt line: Which CC50 at 24 h reading was recorded for the compound CC(S)C(C)S (stereo not drawn) ?
Response line: > 100 µM
